B1: SAT2 (parent)
chain: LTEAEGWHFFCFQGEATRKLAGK

variants of: B1; assay: protein stability index of a GFP-peptide fusion (GPS, HEK-293T) (PSI 1-6); higher = more stable; conditions: c terminus: native;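 note: lentivirally expressed fusions sorted by FACS into six bins by GFP to DsRed ratio, PSI derived from sequencing read proportions per bin multiplied by bin number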
What protein stability index was measured for each of the following?
Give only the figure.

Enquiry: Quick one: protein stability index for W7L ?
Return: 3.12

Enquiry: Moving on to E5M
Return: 4.97

Enquiry: Moving on to E15M
Return: 1.57

Enquiry: Moving on to F9I
Return: 2.23

Enquiry: Moving on to G14T
Return: 2.1

Enquiry: Moving on to L1A
Return: 2.58

Enquiry: Moving on to A16C
Return: 2.46

Enquiry: Moving on to C11K
Return: 3.5

Enquiry: Moving on to G22M
Return: 1.6

Enquiry: Moving on to A16P
Return: 2.33

Enquiry: Moving on to E5V
Return: 1.36

Enquiry: Moving on to E15G
Return: 2.09

Enquiry: Moving on to F9N
Return: 3.52

Enquiry: Moving on to F10V
Return: 2.34

Enquiry: Moving on to G22Q
Return: 3.22

Enquiry: Moving on to G6E
Return: 3.1

Enquiry: Moving on to F9M
Return: 2.51

Enquiry: Moving on to A4W
Return: 2.27

Enquiry: Moving on to W7I
Return: 2.63

Enquiry: Moving on to A4K
Return: 2.61

Enquiry: Moving on to K23C
Return: 2.15

Enquiry: Moving on to T2H
Return: 2.32

Recorded values, source the supplement of paper PMC10567573.
